Sourced from ChEMBL document CHEMBL3045371

- Test system: Fusarium fujikuroi
- assayComment: Fungicidal activity against Fusarium fujikuroi assessed as inhibition of mycelial growth incubated for 3 days at 28 degC
- Type: functional
- reportedConditions: 72 h
Mark Fulfilled for EC90 under 2 µg/mL, Not fulfilled if at or over.

Please check: EC90 for O[C@]1(Cn2cncn2)CCCC[C@H]1Cc1ccc(Cl)cc1 (relative stereo) , strictly under 2 µg/mL or not?
Not fulfilled

Lab note: confirm whether the reported EC90 for this molecule is below 2 µg/mL, equality not counting. molecule: CC1(C)CCC[C@H](Cc2ccc(Cl)cc2)[C@@]1(O)Cn1cncn1 (relative stereo)
Not fulfilled

EC90 under 2 µg/mL? Item: O[C@]1(Cn2cncn2)CCC[C@@H]1Cc1ccc(Cl)cc1 (relative stereo)
Not fulfilled

Quick check: does O[C@]1(Cn2cncn2)CCCCC[C@@H]1Cc1ccc(Cl)cc1 (relative stereo) have EC90 under 2 µg/mL?
Not fulfilled

Check if EC90 falls below 2 µg/mL for O[C@]1(Cn2cncn2)CCCC[C@@H]1Cc1ccc(Cl)cc1 (relative stereo) .
Not fulfilled

# strict comparison: is reported EC90 < 2 µg/mL? input = CC1(C)CCCC[C@H](Cc2ccc(Cl)cc2)[C@@]1(O)Cn1cncn1 (relative stereo)
Fulfilled

Take the molecule O[C@]1(Cn2cncn2)CCC[C@H]1Cc1ccc(Cl)cc1 (relative stereo) and say whether its EC90 is less than 2 µg/mL.
Not fulfilled

hey, is EC90 for CC1(C)CCC[C@@H](Cc2ccc(Cl)cc2)[C@@]1(O)Cn1cncn1 (relative stereo) lower than 2 µg/mL or not?
Not fulfilled

API: query returns whether the molecule falls strictly under 2 µg/mL in EC90. Query: CC1(C)CCCC[C@@H](Cc2ccc(Cl)cc2)[C@@]1(O)Cn1cncn1
Not fulfilled

Record O[C@]1(Cn2cncn2)CCCCC[C@H]1Cc1ccc(Cl)cc1 (relative stereo) : is its EC90 strictly below 2 µg/mL?
Not fulfilled

Is the reported EC90 for CC1(C)CC[C@H](Cc2ccc(Cl)cc2)[C@@]1(O)Cn1cncn1 (relative stereo) strictly below 2 µg/mL?
Fulfilled
